# Lookup of reported Kd keyed by entry
# targetOrTestSystem: Recombinant His-tagged Pfs25, P13829
# assayOverview: BLI
# studyConditions: chain shown with the change; immobilized Pfs25 and mutant Fab analyte; parent: est. 4.6; read off a plot
Give your result in nM as a bare value.

Record excerpt, results attached:
[[record]]
binder = "2544 Fab κC:P94T (protein) chain 1: EVQLVESGGGLVQPGGSLRLSCVASGFTFSNYNMNWVRQAPGKGLEWLSYISSSSGTIYYADSVKGRFTISRDNAKNSMYLQMNSLRAEDTAVYYCVRVEYYYGSSGYYYDFDSWGQGTLVTVSS chain 2: DIVMTQSPLSLPVTPGEPASISCRSSQSLLHNGYNYLDWYLQKPGQSPQLLIYLGSNRASGVPDRFSGSGSGTDFTLKISRVEAEDVGVYYCMQTLQTFTFGQGTRLEIK"
measuredresult = 14

[[record]]
binder = "2544 Fab κC:F95P (protein) chain 1: EVQLVESGGGLVQPGGSLRLSCVASGFTFSNYNMNWVRQAPGKGLEWLSYISSSSGTIYYADSVKGRFTISRDNAKNSMYLQMNSLRAEDTAVYYCVRVEYYYGSSGYYYDFDSWGQGTLVTVSS chain 2: DIVMTQSPLSLPVTPGEPASISCRSSQSLLHNGYNYLDWYLQKPGQSPQLLIYLGSNRASGVPDRFSGSGSGTDFTLKISRVEAEDVGVYYCMQTLQPPTFGQGTRLEIK"
measuredresult = 22000

[[record]]
binder = "2544 Fab HC:D100GY (protein) chain 1: EVQLVESGGGLVQPGGSLRLSCVASGFTFSNYNMNWVRQAPGKGLEWLSYISSSSGTIYYADSVKGRFTISRDNAKNSMYLQMNSLRAEDTAVYYCVRVEYYYGSSGYYYYFDSWGQGTLVTVSS chain 2: DIVMTQSPLSLPVTPGEPASISCRSSQSLLHNGYNYLDWYLQKPGQSPQLLIYLGSNRASGVPDRFSGSGSGTDFTLKISRVEAEDVGVYYCMQTLQPFTFGQGTRLEIK"
measuredresult = 18


Then there is this binder:
# input For 2544 Fab HC:G55S (protein) chain 1: EVQLVESGGGLVQPGGSLRLSCVASGFTFSNYNMNWVRQAPGKGLEWLSYISSSSSTIYYADSVKGRFTISRDNAKNSMYLQMNSLRAEDTAVYYCVRVEYYYGSSGYYYDFDSWGQGTLVTVSS chain 2: DIVMTQSPLSLPVTPGEPASISCRSSQSLLHNGYNYLDWYLQKPGQSPQLLIYLGSNRASGVPDRFSGSGSGTDFTLKISRVEAEDVGVYYCMQTLQPFTFGQGTRLEIK , what is its reported Kd?
# output 14
